Data origin: patent US7396837B2

- Test system: PANC-1
- test.name: SRB colorimetric cell growth inhibition assay, PANC-1
- Assay type: cell-based
- assay.conditions: Homo sapiens, PANC-1, PANC-1; GI=growth inhibition; read-out: GI50 PANC-1
quantity.measured: GI50 (nM)
Respond numerically; units are nM and should not be typed.

COc1cc(-c2c3c4cc(OC)c(OC(=O)[C@@H]5CCCN5)cc4oc(=O)c3n3ccc4cc(OC(=O)[C@@H]5CCCN5)c(OC)cc4c23)ccc1OC(=O)[C@@H]1CCCN1	89.2
COc1cc(-c2c3c4cc(OC)c(OC(=O)[C@H](C)N)cc4oc(=O)c3n3ccc4cc(OC(=O)[C@H](C)N)c(OC)cc4c23)ccc1OC(=O)[C@H](C)N	254

Okay, next one:
Entry under review: COc1cc(-c2c3c4cc(OC)c(OC(=O)CCC5CCCCC5)cc4oc(=O)c3n3ccc4cc(OC(=O)CCC5CCCCC5)c(OC)cc4c23)ccc1OC(=O)CCC1CCCCC1 . Reported GI50?
1620
